Quick reference: Kd of the listed items.
Biological target: T1, rat beta CGRP (SEQ ID NO: 83) (rat, not fully specified)
T1 construct: also called rat βCGRP; rat β-CGRP
T1 peptide: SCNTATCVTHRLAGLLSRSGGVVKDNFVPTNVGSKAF
Assay: SPR, 37 C, mutein captured, CGRP analyte
State the answer as a number, implicitly in pM.

Worked examples follow.
{"columns": ["BINDER", "DISPLAY UNIT", "Kd"],
 "data": [
  ["lipocalin mutein SEQ ID NO: 19 (designed binder, biotinylated by NHS chemistry for capture in SPR) QDSTSDLIPAPPLSKVPLQQNFQDNQFHGKWYVVGRAGNDTLREDKDPEKMEATIYELKEDKSYNVTDVGLVQKKCMYVIHTFVPGSQPGEFTLGNIKSYPGVTSALVRVVSTNYNQHAMVFVKLVKQSRELFEITLYGRTKELTSELKENFIRFSKSLGLPENHIVFPVPIDQCIDGSAWSHPQFEK", "pM", 6],
  ["lipocalin mutein SEQ ID NO: 13 (designed binder, biotinylated by NHS chemistry for capture in SPR) QDSTSDLIPAPPLSKVPLQQNFQDNQFHGKWYVVGRAGNEELREDKDPQKMEATIYELKEDKSYNVTDVGFSEKKCIYVIHTFVPGSQPGEFTLGNIKSYPGVTSALVRVVSTNYNQHAMVFFKVVKQNRELFEITLYGRTKELTSELKENFIRFSKSLGLPENHIVFPVPIDQCIDGSAWSHPQFEK", "pM", 111]
]}

Ask: Request the reported Kd associated with lipocalin mutein SEQ ID NO: 23 (designed binder, biotinylated by NHS chemistry for capture in SPR) QDSTSDLIPAPPLSKVPLQQNFQDNQFHGKWYVVGWAGNTLLREDKDPIKMQAKIYELKEDRSYNVTWVYFADKKCNYHIETFVPGSQPGEFTLGLIKSYPGETPILVRVVSTNYNQHAMVFFKGVNQNREIFEIILYGRTKELTNELKENFIRFSKSLGLPENHIVFPVPIDQCIDGSAWSHPQFEK
Result: 8

Ask: Request the reported Kd associated with lipocalin mutein SEQ ID NO: 7 (designed binder, biotinylated by NHS chemistry for capture in SPR) QDSTSDLIPAPPLSKVPLQQNFQDNQFHGKWYVVGWAGNTLLREDKDPIKMQATIYELKEDKSYNVTWVYFSEKRCNYHIETSVPGSQPGEFTLGTIKSYPGETSILVRVVSTNYNQHAMVFFKGVSQNREIFEITLYGRTKELTSELKENFIRFSKSLGLPENHIVFPVPIDQCIDGSAWSHPQFEK
Result: 91

Ask: Request the reported Kd associated with lipocalin mutein SEQ ID NO: 28 (designed binder, biotinylated by NHS chemistry for capture in SPR) QDSTSDLIPAPPLSKVPLQQNFQDNQFHGKWYVVGWAGNTLLREDKDPIKMQAIIYELKEDRSYNVTWVYFSEKKCNYHIETFVPGSQPGEFTLGTIKSYPGETPILVRVMSTNYNQHAMVFFKGVNQNREIFEIILYGRTKELTNELKENFIRFSKSLGLPENHIVFPVPIDQCIDGSAWSHPQFEK
Result: 32

All values here come from patent US20190338002A1.
